# Tested On: Carbonic anhydrase 1 (Homo sapiens, UniProt P00915)
# Sequence (P00915 whole entry): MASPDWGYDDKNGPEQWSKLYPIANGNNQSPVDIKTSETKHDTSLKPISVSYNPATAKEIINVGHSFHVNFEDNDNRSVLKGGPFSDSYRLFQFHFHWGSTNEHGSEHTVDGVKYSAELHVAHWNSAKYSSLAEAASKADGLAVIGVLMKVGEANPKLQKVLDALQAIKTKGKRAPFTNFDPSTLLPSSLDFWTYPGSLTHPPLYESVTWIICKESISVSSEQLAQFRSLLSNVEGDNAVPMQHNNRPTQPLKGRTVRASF
# Measurement Description: Binding affinity to human CA1 assessed as inhibition constant incubated for 6 hrs by phenol red dye based stopped flow CO2 hydration assay
Measure: Ki
Number first, unit second: that is the form wanted.

Carbonic anhydrase 1 (Homo sapiens, UniProt P00915) data for NS(=O)(=O)c1ccc2c(c1)C1C=CCC1C(c1ccccc1Cl)N2 (racemic) ; its Ki: 73.6 nM

====

# Tested On: Carbonic anhydrase 2 (Homo sapiens)
Measure: Ki (nM)
Quick note: give the figure in nM, leave out the unit.

GET /values?item= NS(=O)(=O)c1ccc2c(c1)C1C=CCC1C(c1ccccc1Cl)N2 (racemic) &system= Carbonic anhydrase 2 (Homo sapiens) returns Ki: 2.2

meta.source: ChEMBL document CHEMBL5352473
